assay: Stability in human serum (37° C., HPLC peak area); type: in vitro ADME
Experimental readout: half-life

input: Recorded half-life of Cc1cc(NC(=O)[C@H](Cc2ccccc2)NC(=O)OCc2ccccc2)cc2nc(NC(C)C)oc(=O)c12 , please.
output: 2.5 h

* * *

Entries and their Selectivity
target: bovine pancreas α-chymotrypsin (Bos taurus); construct: bovine pancreas α-chymotrypsin; purchased Sigma Co; host or cells: bovine pancreas; assay: α-chymotrypsin-inhibitory activity (hydrolysis of succinyl-Ala-Ala-Pro-Phe-p-nitroanilide); format: biochemical; conditions: Table 10; ratio of IC50 for bovine α-chymotrypsin to IC50 for human purulent sputum elastase
Give the figure only, with no unit attached.

input: Recorded Selectivity of CC(C)Oc1nc2cc(NC(=O)[C@H](C)NC(=O)OCc3ccccc3)ccc2c(=O)o1 [Example 22] , please.
output: 4.8

input: // repeat for CC(C)Oc1nc2ccccc2c(=O)o1 [compound 2, reference compound] and report
output: 0.44

input: // repeat for Cc1nc2cc(NC(=O)[C@H](Cc3ccccc3)NC(=O)OCc3ccccc3)ccc2c(=O)o1 [Example 37] and report
output: 31

* * *

target: bovine pancreas α-chymotrypsin (Bos taurus, UniProt P00766); construct: bovine pancreas α-chymotrypsin; purchased Sigma Co; host or cells: bovine pancreas; assay: α-chymotrypsin-inhibitory activity (hydrolysis of succinyl-Ala-Ala-Pro-Phe-p-nitroanilide); assay type: biochemical; settings: Table 10; ratio of IC50 for bovine α-chymotrypsin to IC50 for human purulent sputum elastase
Experimental readout: Selectivity
Give the figure only, with no unit attached.

Here's what some known entries look like.
| Compound | Selectivity |
| --- | --- |
| CC(=O)Nc1ccc2c(=O)oc(OC(C)C)nc2c1 [compound 3, reference compound] | 0.55 |
| CC(C)Oc1nc2cc(NC(=O)[C@@H](Cc3ccccc3)NC(=O)OCc3ccccc3)ccc2c(=O)o1 | 12 |
| Cc1cccc2nc(OC(C)C)oc(=O)c12 [compound 4, reference compound] | 2.9 |
| Cc1cc(NC(=O)[C@H](Cc2ccccc2)NC(=O)OCc2ccccc2)cc2nc(NC(C)C)oc(=O)c12 | 19 |
| O=C(Nc1ccc2c(=O)oc(C(F)(F)F)nc2c1)[C@@H]1CCCN1C(=O)OCc1ccccc1 | 7.7 |
| CC(C)Oc1nc2cc(NC(=O)[C@@H](NC(=O)[C@H](Cc3ccccc3)NC(=O)OCc3ccccc3)C(C)C)ccc2c(=O)o1 | 5.6 |

Below: the item to evaluate.
input: Recorded Selectivity of CC(C)Oc1nc2cc(NC(=O)[C@H](Cc3ccccc3)NC(=O)OC(C)(C)C)ccc2c(=O)o1 , please.
output: 2.0

* * *

target: human purulent sputum elastase (Homo sapiens, UniProt P08246)
Sequence (P08246 30-247 limits assumed): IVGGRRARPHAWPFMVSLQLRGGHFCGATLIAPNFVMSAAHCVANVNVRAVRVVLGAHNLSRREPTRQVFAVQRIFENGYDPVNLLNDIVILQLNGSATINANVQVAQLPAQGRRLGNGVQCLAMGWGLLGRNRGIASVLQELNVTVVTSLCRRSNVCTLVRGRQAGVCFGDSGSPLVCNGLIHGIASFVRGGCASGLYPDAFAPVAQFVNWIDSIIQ
Experimental readout: pIC50
Scale note: pIC50 = -log10(concentration in M).

input: Form field - read-out: pIC50; system: human purulent sputum elastase (Homo sapiens, UniProt P08246); submitted item: CC(C)Oc1nc2cc(NC(=O)[C@H](CCC(=O)OCc3ccccc3)NC(=O)OCc3ccccc3)ccc2c(=O)o1
output: 7.59

* * *

Entries and their Selectivity
molecular target: bovine pancreas α-chymotrypsin (Bos taurus); construct: bovine pancreas α-chymotrypsin; purchased Sigma Co; host or cells: bovine pancreas; experiment: α-chymotrypsin-inhibitory activity (hydrolysis of succinyl-Ala-Ala-Pro-Phe-p-nitroanilide); assay type: biochemical; conditions: Table 10; ratio of IC50 for bovine α-chymotrypsin to IC50 for human purulent sputum elastase
Give the figure only, with no unit attached.

input: Recorded Selectivity of CC(C)Oc1nc2cc(NC(=O)[C@H](CCCCNC(=O)OCc3ccccc3)NC(=O)OCc3ccccc3)ccc2c(=O)o1 [Example 25] , please.
output: 41

* * *

target: bovine pancreas α-chymotrypsin (Bos taurus, UniProt P00766); construct: bovine pancreas α-chymotrypsin; purchased Sigma Co; host or cells: bovine pancreas; test: α-chymotrypsin-inhibitory activity (hydrolysis of succinyl-Ala-Ala-Pro-Phe-p-nitroanilide); type: biochemical; settings: Table 10; procedure of Example 19 (B)
Entries and their IC50
Field: numeric (nM). Do not append units.

| Molecule | Study target | Unit descriptor | IC50 |
| --- | --- | --- | --- |
| CC(C)Oc1nc2cc(NC(=O)[C@@H](NC(=O)[C@H](Cc3ccccc3)NC(=O)OCc3ccccc3)C(C)C)ccc2c(=O)o1 [Example 33] | bovine pancreas α-chymotrypsin (Bos taurus, UniProt P00766) | nM | 180 |
| CC(=O)N1CCC[C@H]1C(=O)Nc1ccc2c(=O)oc(OC(C)C)nc2c1 [Example 30] | bovine pancreas α-chymotrypsin (Bos taurus, UniProt P00766) | nM | 490 |
| CC(C)Oc1nc2cc(NC(=O)[C@H](CCCCNC(=O)OCc3ccccc3)NC(=O)OCc3ccccc3)ccc2c(=O)o1 [Example 25] | bovine pancreas α-chymotrypsin (Bos taurus, UniProt P00766) | nM | 580 |

input: Recorded IC50 of O=c1oc(C(F)(F)F)nc2ccccc12 [compound 1, reference compound] , please.
output: 680

* * *

molecular target: bovine pancreas α-chymotrypsin (Bos taurus, UniProt P00766); construct: bovine pancreas α-chymotrypsin; purchased Sigma Co; host or cells: bovine pancreas; assay: α-chymotrypsin-inhibitory activity (hydrolysis of succinyl-Ala-Ala-Pro-Phe-p-nitroanilide); format: biochemical; details: Table 10; ratio of IC50 for bovine α-chymotrypsin to IC50 for human purulent sputum elastase
Experimental readout: Selectivity
Give the figure only, with no unit attached.

Here's what some known entries look like.
| Record smiles | Selectivity |
| --- | --- |
| CC(C)Oc1nc2cc(NC(=O)[C@H](Cc3ccccc3)NC(=O)OCc3ccccc3)ccc2c(=O)o1 | 31 |
| CC(C)Oc1nc2cc(NC(=O)[C@@H]3CCCN3C(=O)OC(C)(C)C)ccc2c(=O)o1 | 3.7 |
| CC(=O)N1CCC[C@H]1C(=O)Nc1ccc2c(=O)oc(OC(C)C)nc2c1 | 3.8 |

Below: the item to evaluate.
input: Recorded Selectivity of Cc1cc(NC(=O)[C@H](Cc2ccccc2)NC(=O)OCc2ccccc2)cc2nc(OC(C)C)oc(=O)c12 , please.
output: 18

* * *

biological target: bovine pancreas α-chymotrypsin (Bos taurus)
Experimental readout: IC50 (nM)
Field: numeric (nM). Do not append units.

Here's what some known entries look like.
| Compound | Study target | Unit descriptor | Data value |
| --- | --- | --- | --- |
| Cc1cccc2nc(OC(C)C)oc(=O)c12 [compound 4, reference compound] | bovine pancreas α-chymotrypsin (Bos taurus) | nM | 120 |
| Cc1cc(NC(=O)[C@H](Cc2ccccc2)NC(=O)OCc2ccccc2)cc2nc(OC(C)C)oc(=O)c12 [Example 34] | bovine pancreas α-chymotrypsin (Bos taurus) | nM | 10 |
| CC(C)Oc1nc2cc(NC(=O)[C@@H](Cc3ccccc3)NC(=O)OCc3ccccc3)ccc2c(=O)o1 [Example 27] | bovine pancreas α-chymotrypsin (Bos taurus) | nM | 490 |
| Cc1cc(NC(=O)[C@H](Cc2ccccc2)NC(=O)OCc2ccccc2)cc2nc(NC(C)C)oc(=O)c12 [Example 36] | bovine pancreas α-chymotrypsin (Bos taurus) | nM | 25 |
| CC(=O)Nc1ccc2c(=O)oc(OC(C)C)nc2c1 [compound 3, reference compound] | bovine pancreas α-chymotrypsin (Bos taurus) | nM | 32 |
| CC(C)Oc1nc2ccccc2c(=O)o1 [compound 2, reference compound] | bovine pancreas α-chymotrypsin (Bos taurus) | nM | 22 |

Below: the item to evaluate.
input: Recorded IC50 of CC(C)Oc1nc2cc(NC(=O)[C@@H]3CCCN3C(=O)OC(C)(C)C)ccc2c(=O)o1 [Example 28] , please.
output: 130

* * *

target: human purulent sputum elastase (Homo sapiens, UniProt P08246)
Experimental readout: IC50 (nM)
Field: numeric (nM). Do not append units.

Here's what some known entries look like.
| Compound | IC50 (nM) |
| --- | --- |
| CC(C)Oc1nc2cc(NC(=O)[C@H](Cc3ccccc3)NC(=O)OC(C)(C)C)ccc2c(=O)o1 | 46 |
| CC(C)Oc1nc2cc(NC(=O)[C@@H]3CCCN3C(=O)[C@H](C)NC(=O)OCc3ccccc3)ccc2c(=O)o1 | 32 |
| O=c1oc(C(F)(F)F)nc2ccccc12 [compound 1, reference compound] | 6200 |
| CC(=O)Nc1ccc2c(=O)oc(OC(C)C)nc2c1 [compound 3, reference compound] | 58 |
| Cc1cc(NC(=O)[C@H](Cc2ccccc2)NC(=O)OCc2ccccc2)cc2nc(OC(C)C)oc(=O)c12 | 0.55 |

input: Recorded IC50 of CC(C)Oc1nc2cc(NC(=O)[C@@H]3CCCN3C(=O)OC(C)(C)C)ccc2c(=O)o1 , please.
output: 35

input: // repeat for CC(C)Oc1nc2ccccc2c(=O)o1 [compound 2, reference compound] and report
output: 49

input: // repeat for CC(=O)N1CCC[C@H]1C(=O)Nc1ccc2c(=O)oc(OC(C)C)nc2c1 and report
output: 130

input: // repeat for Cc1cccc2nc(OC(C)C)oc(=O)c12 [compound 4, reference compound] and report
output: 41

input: // repeat for CC(C)Oc1nc2cc(NC(=O)[C@@H](NC(=O)[C@H](Cc3ccccc3)NC(=O)OCc3ccccc3)C(C)C)ccc2c(=O)o1 and report
output: 21
